Each recorded value in this set is attributed to the NIST ThermoML archive (doi:10.1021/je030226s).

# mass density values compiled below
PROCEDURE DETAILS: xn = mol fraction of the nth substance listed
CONDITION CONTEXT: 298.15 K; 101.32 kPa; Liquid; x2 = 0.1
Write the answer as a number in kg/m3, unit excluded.

# example entries with known answers
[
  {
    "MOLECULE": "CCCCCl [1-chlorobutane] + CCCCO",
    "mass density / kg/m3": 873.3
  },
  {
    "MOLECULE": "CCCCCl [1-chlorobutane] + CCO",
    "mass density / kg/m3": 874.2
  },
  {
    "MOLECULE": "CCCCCl [1-chlorobutane] + CO",
    "mass density / kg/m3": 876.1
  }
]

Next molecule, mass density to be filled in.
Identify measured mass density associated with CCCCCl [1-chlorobutane] + CCCO
873.8

----------
PROCEDURE DETAILS: xn = mol fraction of the nth substance listed
CONDITION CONTEXT: 298.15 K; 101.32 kPa; Liquid; x2 = 0.3
MEASUREMENT NAME: mass density (kg/m3)
Write the answer as a number in kg/m3, unit excluded.

# example entries with known answers
[
  {
    "MOLECULE": "CCCCCl [1-chlorobutane] + CCCCO",
    "mass density [kg/m3]": 859.4
  },
  {
    "MOLECULE": "CCCCCl [1-chlorobutane] + CCCO",
    "mass density [kg/m3]": 860.5
  },
  {
    "MOLECULE": "CCCCCl [1-chlorobutane] + CCO",
    "mass density [kg/m3]": 860.8
  }
]

Next molecule, mass density to be filled in.
Identify measured mass density associated with CCCCCl [1-chlorobutane] + CO
865.6

----------
PROCEDURE DETAILS: xn = mol fraction of the nth substance listed
CONDITION CONTEXT: 298.15 K; 101.32 kPa; Liquid; x2 = 0.95
# mass density values compiled below
Write the answer as a number in kg/m3, unit excluded.

# example entries with known answers
[
  {
    "COMPOUND": "CCCCCl [1-chlorobutane] + CCCO",
    "READING": 805.3
  },
  {
    "COMPOUND": "CCCCCl [1-chlorobutane] + CO",
    "READING": 796.9
  },
  {
    "COMPOUND": "CCCCCl [1-chlorobutane] + CCO",
    "READING": 793.4
  }
]

Identify measured mass density associated with CCCCCl [1-chlorobutane] + CCCCO
810.3

----------
PROCEDURE DETAILS: xn = mol fraction of the nth substance listed
CONDITION CONTEXT: 298.15 K; 101.32 kPa; Liquid; x2 = 0.6
MEASUREMENT NAME: mass density (kg/m3)
Write the answer as a number in kg/m3, unit excluded.

# example entries with known answers
[
  {
    "COMPOUND": "CCCCCl [1-chlorobutane] + CCO",
    "mass density [kg/m3]": 836.1
  },
  {
    "COMPOUND": "CCCCCl [1-chlorobutane] + CO",
    "mass density [kg/m3]": 843.9
  },
  {
    "COMPOUND": "CCCCCl [1-chlorobutane] + CCCCO",
    "mass density [kg/m3]": 838
  }
]

Next compound, mass density to be filled in.
Identify measured mass density associated with CCCCCl [1-chlorobutane] + CCCO
838.3

----------
PROCEDURE DETAILS: xn = mol fraction of the nth substance listed
CONDITION CONTEXT: 308.15 K; 101.32 kPa; Liquid; x2 = 0.95
Numbers after ± are expanded uncertainties.
# mass density values compiled below
Remember to quote the unit after the number.

# example entries with known answers
[
  {
    "MOLECULE": "CCCCCl [1-chlorobutane] + CO",
    "mass density": "787.2 ± 0.9 kg/m3"
  },
  {
    "MOLECULE": "CCCCCl [1-chlorobutane] + CCCCO",
    "mass density": "802.3 ± 0.9 kg/m3"
  },
  {
    "MOLECULE": "CCCCCl [1-chlorobutane] + CCO",
    "mass density": "784.5 ± 0.9 kg/m3"
  }
]

Next molecule, mass density to be filled in.
Identify measured mass density associated with CCCCCl [1-chlorobutane] + CCCO
796.9 ± 0.9 kg/m3

----------
PROCEDURE DETAILS: refractive index (Na D-line) (dimensionless); xn = mol fraction of the nth substance listed
CONDITION CONTEXT: 288.15 K; 101.32 kPa; Liquid; x2 = 0.9
MEASUREMENT NAME: refractive index
Keep the answer to the number alone.

# example entries with known answers
[
  {
    "MOLECULE": "CCCCCl [1-chlorobutane] + CCO",
    "READING": 1.3697
  },
  {
    "MOLECULE": "CCCCCl [1-chlorobutane] + CCCO",
    "READING": 1.3892
  },
  {
    "MOLECULE": "CCCCCl [1-chlorobutane] + CO",
    "READING": 1.3457
  }
]

Identify measured refractive index associated with CCCCCl [1-chlorobutane] + CCCCO
1.4016

----------
PROCEDURE DETAILS: refractive index (Na D-line) (dimensionless); xn = mol fraction of the nth substance listed
CONDITION CONTEXT: 298.15 K; 101.32 kPa; Liquid; x2 = 0.5
# refractive index values compiled below
Keep the answer to the number alone.

Identify measured refractive index associated with CCCCCl [1-chlorobutane] + CO
1.3778

Identify measured refractive index associated with CCCCCl [1-chlorobutane] + CCCO
1.3919

Identify measured refractive index associated with CCCCCl [1-chlorobutane] + CCO
1.384

Identify measured refractive index associated with CCCCCl [1-chlorobutane] + CCCCO
1.398

----------
PROCEDURE DETAILS: xn = mol fraction of the nth substance listed
CONDITION CONTEXT: 308.15 K; 101.32 kPa; Liquid; x2 = 0.3
MEASUREMENT NAME: mass density (kg/m3)
Write the answer as a number in kg/m3, unit excluded.

# example entries with known answers
[
  {
    "COMPOUND": "CCCCCl [1-chlorobutane] + CCCO",
    "UNIT INFO": "kg/m3",
    "READING": 849.7
  },
  {
    "COMPOUND": "CCCCCl [1-chlorobutane] + CCO",
    "UNIT INFO": "kg/m3",
    "READING": 849.7
  },
  {
    "COMPOUND": "CCCCCl [1-chlorobutane] + CO",
    "UNIT INFO": "kg/m3",
    "READING": 854.5
  }
]

Identify measured mass density associated with CCCCCl [1-chlorobutane] + CCCCO
848.9

----------
# mass density values compiled below
PROCEDURE DETAILS: xn = mol fraction of the nth substance listed
CONDITION CONTEXT: 298.15 K; 101.32 kPa; Liquid; x2 = 0.8
Write the answer as a number in kg/m3, unit excluded.

# example entries with known answers
[
  {
    "COMPOUND": "CCCCCl [1-chlorobutane] + CCCO",
    "MEASUREMENT NAME": "mass density",
    "READING": 820.7
  },
  {
    "COMPOUND": "CCCCCl [1-chlorobutane] + CO",
    "MEASUREMENT NAME": "mass density",
    "READING": 821.4
  },
  {
    "COMPOUND": "CCCCCl [1-chlorobutane] + CCCCO",
    "MEASUREMENT NAME": "mass density",
    "READING": 822.7
  }
]

Next compound, mass density to be filled in.
Identify measured mass density associated with CCCCCl [1-chlorobutane] + CCO
814.4

----------
PROCEDURE DETAILS: xn = mol fraction of the nth substance listed
CONDITION CONTEXT: 308.15 K; 101.32 kPa; Liquid; x2 = 0.6
MEASUREMENT NAME: mass density (kg/m3)
Write the answer as a number in kg/m3, unit excluded.

[
  {
    "COMPOUND": "CCCCCl [1-chlorobutane] + CCCO",
    "mass density / kg/m3": 828.3
  },
  {
    "COMPOUND": "CCCCCl [1-chlorobutane] + CO",
    "mass density / kg/m3": 833
  },
  {
    "COMPOUND": "CCCCCl [1-chlorobutane] + CCCCO",
    "mass density / kg/m3": 828.6
  }
]

Next compound, mass density to be filled in.
Identify measured mass density associated with CCCCCl [1-chlorobutane] + CCO
825.7
